- Test system: LXRa homodimer (NR concentration 270 nM)
- assay summary: PBM binding z-score (relative to random genomic background probes); higher = stronger binding; sequences stand for … in GC…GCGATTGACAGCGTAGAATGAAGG
Below, each of the sequences is paired with its reported PBM binding z-score value.
API note: the answer field is a bare number with no unit suffix.

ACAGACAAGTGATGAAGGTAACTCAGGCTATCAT :: -0.503
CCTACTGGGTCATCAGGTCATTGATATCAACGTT :: 2.34

Suppose we examine the sequence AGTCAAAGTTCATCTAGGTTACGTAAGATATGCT ; what PBM binding z-score value has been reported?
6.06

Suppose we examine the sequence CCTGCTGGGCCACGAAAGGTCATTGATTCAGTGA ; what PBM binding z-score value has been reported?
4.48

Suppose we examine the sequence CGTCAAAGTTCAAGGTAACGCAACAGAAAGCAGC ; what PBM binding z-score value has been reported?
2.35

Suppose we examine the sequence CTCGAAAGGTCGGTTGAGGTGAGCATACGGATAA ; what PBM binding z-score value has been reported?
-0.014

Suppose we examine the sequence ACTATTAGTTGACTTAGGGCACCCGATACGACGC ; what PBM binding z-score value has been reported?
0.0685

Suppose we examine the sequence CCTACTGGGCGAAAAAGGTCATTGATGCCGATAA ; what PBM binding z-score value has been reported?
2.59

Suppose we examine the sequence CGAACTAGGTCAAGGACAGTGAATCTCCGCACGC ; what PBM binding z-score value has been reported?
0.163

Suppose we examine the sequence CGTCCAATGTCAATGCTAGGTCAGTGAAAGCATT ; what PBM binding z-score value has been reported?
0.797

Suppose we examine the sequence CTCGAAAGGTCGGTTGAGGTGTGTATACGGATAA ; what PBM binding z-score value has been reported?
-0.285

Suppose we examine the sequence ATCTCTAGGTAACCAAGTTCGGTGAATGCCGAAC ; what PBM binding z-score value has been reported?
0.0553

Suppose we examine the sequence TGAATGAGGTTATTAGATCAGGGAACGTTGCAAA ; what PBM binding z-score value has been reported?
0.0291

Suppose we examine the sequence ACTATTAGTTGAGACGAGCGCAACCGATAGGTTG ; what PBM binding z-score value has been reported?
-0.214

Suppose we examine the sequence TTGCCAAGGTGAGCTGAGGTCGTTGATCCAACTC ; what PBM binding z-score value has been reported?
-0.266

Suppose we examine the sequence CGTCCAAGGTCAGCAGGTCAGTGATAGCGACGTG ; what PBM binding z-score value has been reported?
0.399

Suppose we examine the sequence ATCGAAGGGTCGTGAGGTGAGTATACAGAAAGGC ; what PBM binding z-score value has been reported?
-0.107

Suppose we examine the sequence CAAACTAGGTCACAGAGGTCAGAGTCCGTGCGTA ; what PBM binding z-score value has been reported?
4.71

Suppose we examine the sequence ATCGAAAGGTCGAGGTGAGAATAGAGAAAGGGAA ; what PBM binding z-score value has been reported?
0.181

Suppose we examine the sequence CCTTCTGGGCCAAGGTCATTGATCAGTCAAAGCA ; what PBM binding z-score value has been reported?
0.639

Suppose we examine the sequence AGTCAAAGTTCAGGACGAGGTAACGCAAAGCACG ; what PBM binding z-score value has been reported?
1.08

Suppose we examine the sequence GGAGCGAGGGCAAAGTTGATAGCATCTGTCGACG ; what PBM binding z-score value has been reported?
-0.435
